Recorded values, source PubChem BioAssay AID651821.

Below: a set of entries, each annotated with reported inhibition.
test_protocol: binders of r(CAG) RNA repeats, primary screen, biochemical, fluorescence (AID 651821);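 note: 0% = DMSO alone and 100% = 100 µM mitoxantrone as full dye displacement; higher means more dye released from RNA so lower well fluorescence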
condition_details: r(CAG) RNA repeat, TO-PRO-1 dye displacement fluorescence; at 3 µM; hits give high values
In all, about 370,000 compounds went through this assay and about 4,700 (1.3%) were called active. What follows is part of a selection rich in actives, with near analogues and random picks from the rest.
assay_metric: inhibition (%)

molecule=Cc1cc(/C=N/Nc2ccc([N+](=O)[O-])cn2)c(C)n1-c1cccc(C(=O)O)c1 unit_of_measurement=% observed_value=47.8
molecule=COC(=O)CSc1ncnc2c1cnn2-c1ccc(C)cc1C unit_of_measurement=% observed_value=-5.94
molecule=O=C(N/N=C/c1cc(Cl)cc([N+](=O)[O-])c1O)C(O)(c1ccccc1)c1ccccc1 unit_of_measurement=% observed_value=75.8
molecule="CC(c1c[nH]c2ccccc12)c1c(-c2ccccc2)n(C)c2ccccc12 (centres undefined)" unit_of_measurement=% observed_value=8.54
molecule=O=C(COc1ccccc1Cl)Nn1cnnc1 unit_of_measurement=% observed_value=2.37
molecule=Cc1c(NC(=O)Nc2cccc([N+](=O)[O-])c2)c(=O)n(-c2ccccc2)n1C unit_of_measurement=% observed_value=-1.07
molecule=C[C@H](O)[C@@H]1C(=O)N2CCc3c([nH]c4c(-c5ccc6c(c5)OCO6)cccc34)[C@@H]2C[C@@H]1N(C)C(=O)c1ccco1 unit_of_measurement=% observed_value=5.15
molecule=CC(C)(C)c1ccc(S(=O)(=O)NCC2CCN(C(=O)C(=O)c3cc4ccccc4o3)CC2)cc1 unit_of_measurement=% observed_value=9.84
molecule=Cc1ccc(-n2ncc3c(Nc4cccc(C(=O)O)c4)ncnc32)cc1 unit_of_measurement=% observed_value=40.9

---

test_protocol: binders of r(CAG) RNA repeats, primary screen, biochemical, fluorescence (AID 651821);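 note: 0% = DMSO alone and 100% = 100 µM mitoxantrone as full dye displacement; higher means more dye released from RNA so lower well fluorescence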
condition_details: r(CAG) RNA repeat, TO-PRO-1 dye displacement fluorescence; at 3 µM; hits give high values
The whole screen tested about 370,000 compounds, of which about 4,700 (1.3%) were called active. Many of the other results were omitted from the sample, so actives are more common in it than they were.
assay_metric: inhibition (%)

molecule="CN(C(=O)COC(=O)c1cc(-c2ccco2)nc2ccccc12)C1CCS(=O)(=O)C1 (stereo not given)" assay_metric=inhibition observed_value=42.3
molecule="CCC(CO)Nc1cccc2c1S(=O)(=O)N(Cc1cn(Cc3ccccc3C(F)(F)F)nn1)Cc1ccccc1O2 (stereo not given)" assay_metric=inhibition observed_value=7.47
molecule=Cc1cc2nc3c(=O)[nH]c(=O)nc-3n(C[C@H](O)[C@H](O)[C@H](O)CO)c2cc1C assay_metric=inhibition observed_value=-477
molecule=O=C(O)c1ccc2c(c1)C(=O)N(c1ccc(/C=C/C(=O)c3ccccc3)cc1)C2=O assay_metric=inhibition observed_value=46.3
molecule="O=C(CCC1CCCN(Cc2ccc(O)c(Cl)c2)C1)NCc1ccccc1F (stereo not given)" assay_metric=inhibition observed_value=-2.68
molecule=O=C(c1cc(-c2ccco2)nc2ccccc12)N(Cc1nnc(-c2ccc(Cl)cc2)o1)C1CC1 assay_metric=inhibition observed_value=8.3
molecule="CCOC(=O)c1c(NC(=O)C2CC=CCC2C(=O)O)sc(C)c1CC (stereo not given)" assay_metric=inhibition observed_value=34.6
molecule="CCOC(=O)c1c(NC(=O)CN2C(=O)NC3(CCC(C)CC3)C2=O)sc(C)c1CC (stereo not given)" assay_metric=inhibition observed_value=-14
molecule=CCc1c(C)sc(NC(=O)c2cccs2)c1C(N)=O assay_metric=inhibition observed_value=5.17
molecule=CC(C)CNc1cccc2c1S(=O)(=O)N(Cc1cn(Cc3ccc(Cl)cc3)nn1)Cc1ccccc1O2 assay_metric=inhibition observed_value=5.62
molecule=COCCCNC(=O)C[C@H]1C[C@@]2(C(=O)OC)C(=C[C@H](C(C)(C)C)O[C@@H]2C)N(Cc2ccc(Cl)cc2Cl)C1=O assay_metric=inhibition observed_value=1.45
molecule=O=C(COc1ccccc1)Nc1nonc1NC(=O)COc1ccccc1 assay_metric=inhibition observed_value=8.22
molecule="CN(C(N)=NC(=O)/C=C/c1ccccc1)C(C#Cc1ccccc1)Cc1ccccc1 (stereo not given)" assay_metric=inhibition observed_value=3.26
molecule=C=CCN1[C@@H](Cc2ccccc2)COc2cccc(N3CCSCC3)c2S1(=O)=O assay_metric=inhibition observed_value=5.53
molecule=O=C(CCC1CCN(C(=O)c2cccc(Cl)c2F)CC1)Nc1ccccc1 assay_metric=inhibition observed_value=-5.06
molecule="Cc1ccc(S(=O)(=O)CCC(=O)OCC(=O)N(C)C2CCS(=O)(=O)C2)cc1 (stereo not given)" assay_metric=inhibition observed_value=2.79
molecule=O=C(COC(=O)c1ccc(Oc2ccccc2)cc1)Nc1nnc(-c2ccccc2)o1 assay_metric=inhibition observed_value=39.7
molecule=Cc1ccc(Cn2cc(COC(=O)N(C)Cc3ccccc3)nn2)cc1 assay_metric=inhibition observed_value=0.63
molecule=CC(=O)Nc1ccc(NC(=O)c2ccc3c(c2)C(=O)N(c2ccccc2C)C3=O)cc1 assay_metric=inhibition observed_value=-2.08
molecule=CC(=O)Oc1ccc(C)cc1N1C(=O)c2ccc(C(=O)O)cc2C1=O assay_metric=inhibition observed_value=4.11

---

Collected inhibition values appear next to each entry.
test_protocol: binders of r(CAG) RNA repeats, primary screen, biochemical, fluorescence (AID 651821);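 note: 0% = DMSO alone and 100% = 100 µM mitoxantrone as full dye displacement; higher means more dye released from RNA so lower well fluorescence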
condition_details: r(CAG) RNA repeat, TO-PRO-1 dye displacement fluorescence; at 3 µM; hits give high values
In all, about 370,000 compounds went through this assay and about 4,700 (1.3%) were called active. Only a selection was taken, and actives are over-represented in it overall.
assay_metric: inhibition (%)

molecule="CC(C)CNS(=O)(=O)CC1NCCc2ccccc21 (stereo unspecified)" assay_metric=inhibition observed_value=5.19
molecule="CC(=O)C1(C(=O)Nc2nccs2)CC(c2ccccc2C(F)(F)F)=NO1 (stereo unspecified)" assay_metric=inhibition observed_value=2.46
molecule="CCOC(=O)C1=C(C)NC2=C(C(=O)CC(C)(C)C2)C1c1ccc2c(c1)OCO2 (stereo unspecified)" assay_metric=inhibition observed_value=1.3
molecule=COc1cc(C(=O)Nn2c(CC(C)C)nc3ccccc3c2=O)cc(OC)c1OC assay_metric=inhibition observed_value=-4.74
molecule=Cc1c(C)c2c(OCC(=O)NCCCO)cc3c(c2oc1=O)CCC(C)(C)O3 assay_metric=inhibition observed_value=-6.81
molecule=CCCCNC(=O)C[C@@H]1C(=O)N(CCc2ccc(Cl)cc2)C2=CCCC[C@]21C(=O)OCC assay_metric=inhibition observed_value=0.46
molecule=O=C(c1cccc(C(F)(F)F)c1)N1CC[C@H]2[C@H](CCCN2Cc2cc(F)cc(F)c2)C1 assay_metric=inhibition observed_value=-2.78
molecule=Cc1ccc(Cc2nnc(SCC(=O)Nc3ccccc3C)[nH]c2=O)cc1 assay_metric=inhibition observed_value=15.2
molecule=O=C(N[C@H](C(=O)N1CCC[C@H]1C(=O)NCCc1ccccc1Cl)c1ccccc1)c1ccccc1 assay_metric=inhibition observed_value=3.45
molecule="OC(c1ccccc1)c1nc(-c2cnc3ccccc3c2)cs1 (stereo unspecified)" assay_metric=inhibition observed_value=16.2
molecule=COc1ccc(CNS(=O)(=O)c2cc(Br)ccc2Br)cc1 assay_metric=inhibition observed_value=2.67
molecule=C/C=C/C(=O)OCC(=O)Nc1ccc(F)cc1Cl assay_metric=inhibition observed_value=4.85
molecule=C=CS(=O)(=O)N(Cc1nnn(Cc2ccccc2)c1Br)[C@H](C(=O)OC)C(C)C assay_metric=inhibition observed_value=-1.47
molecule=C=CCN1C(=O)[C@@H](CC(=O)NCCCCc2ccccc2)[C@]2(C(=O)OCC)CCCCC/C=C/12 assay_metric=inhibition observed_value=3.6
molecule=N#Cc1ccccc1CN1C(=O)S/C(=C/c2cccn2-c2cccc(C(=O)O)c2)C1=O assay_metric=inhibition observed_value=58.4
molecule="CCOC(=O)C1=C(C(=O)OCC)C2N(Cc3ccc(C#N)cc3)c3ccccc3[C@@]23C[C@@H](C(=O)OC)N(S(=O)(=O)c2ccc(F)cc2)C3=N1 (stereo partly specified)" assay_metric=inhibition observed_value=15.6
molecule=CCOc1ccc(C(=O)NC2CCN(CC(=O)NCc3cccs3)CC2)cc1 assay_metric=inhibition observed_value=-7.65
molecule=CC(=O)N1CCc2cc(S(=O)(=O)NCCC(=O)N3CCCC3)ccc21 assay_metric=inhibition observed_value=0.89
molecule=Cc1cc2c(nc1C)CCCN2C assay_metric=inhibition observed_value=-0.74
molecule="Cc1ccc(C(=O)N(Cc2ccccn2)CC2CCCO2)cc1 (stereo unspecified)" assay_metric=inhibition observed_value=-0.73
molecule=COc1cc(C(=S)NC2CCCCC2)ccc1O assay_metric=inhibition observed_value=4.7

---

test_protocol: binders of r(CAG) RNA repeats, primary screen, biochemical, fluorescence (AID 651821);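 note: 0% = DMSO alone and 100% = 100 µM mitoxantrone as full dye displacement; higher means more dye released from RNA so lower well fluorescence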
condition_details: r(CAG) RNA repeat, TO-PRO-1 dye displacement fluorescence; at 3 µM
In all, about 370,000 compounds went through this assay and about 4,700 (1.3%) were called active.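 The calls were made as follows: active = inhibition above the plate cutoff, the mean of all test compounds on that plate plus 3 SD (cut at about 35% in these data); inactive = the rest.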 Many of the other results were omitted from the sample, so actives are more common in it than they were.
Possible outcomes: 1.0 (active), 0.0 (inactive)

molecule=O=C(COc1ccccc1Cl)Nc1ccc(C(=O)c2ccc(C(=O)O)cc2)cc1 class_label=1.0
molecule=COC(=O)c1c(NC(=O)CSc2nncs2)sc2c1CCCCC2 class_label=0.0
molecule=CCCc1cc(=O)[nH]c(SCC(=O)Nc2ccc(S(=O)(=O)N3CCCC3)cc2)n1 class_label=0.0
molecule=CN(C)S(=O)(=O)c1cccc(C(=O)N/N=C\c2ccco2)c1 class_label=0.0
molecule="COC(=O)c1c(NC(=O)C2CC(C)=C(C)CC2C(=O)O)sc2c1CCCCC2 (stereo not given)" class_label=1.0
molecule="COC(=O)c1c(NC(=O)CN2C(=O)NC(CCc3ccccc3)C2=O)sc2c1CCCCC2 (stereo not given)" class_label=0.0
molecule=O=C(COc1ccccc1)Nc1ccc(C(=O)N2CCCC2)cc1 class_label=0.0
molecule=COc1cc(NC(=O)COc2ccccc2Cl)ccc1NC(=O)C(C)C class_label=0.0
molecule="CCCc1cc(=O)[nH]c(SCC(=O)N2C(C)CCCC2C)n1 (stereo not given)" class_label=0.0
molecule=CCCc1cc(=O)[nH]c(SCC(=O)Nc2sc3c(c2C#N)CCCC3)n1 class_label=1.0
